Target or system: T1, OX40 on a functional cell line overexpressing OX40 (UniProt P43489 29-277, limits assumed)
T1 sequence (looked up): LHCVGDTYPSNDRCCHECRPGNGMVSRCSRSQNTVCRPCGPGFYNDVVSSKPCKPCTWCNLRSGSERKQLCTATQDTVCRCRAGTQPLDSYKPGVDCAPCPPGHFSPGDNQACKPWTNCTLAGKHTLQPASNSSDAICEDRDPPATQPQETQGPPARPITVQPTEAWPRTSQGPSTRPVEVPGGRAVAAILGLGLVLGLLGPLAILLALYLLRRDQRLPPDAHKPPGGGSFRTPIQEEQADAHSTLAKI
Measurement protocol: cell-based or functional assay
Endpoint: IL-8 secretion by OX40 overexpressing functional cell line, best-fit value LogEC50
Quick one: just the number, no unit, thanks!

[
  {
    "Binder": "AH02921 humanized anti-human OX40 monoclonal antibody (recombinant human IgG1/kappa) (antibody, V domains shown) VH: QVQLVQSGPEVKKPGASVKVSCKASGYTFTDYSMHWVRQAPGQGLEWMGWISTETGEPTYADDFKGRFTITLDTSASTAYLEISSLRSEDTAVYFCARVRPWYLTVWGQGTLVTVSS VL: DIQMTQSPSSLSASVGDRVTITCRASQDISNYLNWYQQKPGKAPKLLIYYTSRLYSGVPSRFSGSGSGTDYTLTISSLQPEDIATYFCQQANTLPLTFGGGTKLEIK",
    "Reading": 0.329
  },
  {
    "Binder": "AH02913 humanized anti-human OX40 monoclonal antibody (recombinant human IgG1/kappa) (antibody, V domains shown) VH: QVQLVQSGPEVKKPGASVKVSCKASGYTFTDYSMHWVKQAPGQGLEWMGWISTETGEPTYADDFKGRVTITLDTSASTAYMELSSLRSEDTAVYFCARVRPWYLAVWGQGTLVTVSS VL: DIQMTQSPSSLSASVGDRVTITCRASQDISNYLNWYQQKPGKAVKLLIYYTSRLYSGVPSRFSGSGSGTDYTFTISSLQPEDIATYFCQQANTLPLTFGGGTKLEIK",
    "Reading": 0.209
  },
  {
    "Binder": "AH02923 humanized anti-human OX40 monoclonal antibody (recombinant human IgG1/kappa) (antibody, V domains shown) VH: QVQLVQSGAEVKKPGASVKVSCKASGYTFTDYSMHWVRQAPGQGLEWMGWISTETGEPTYADDFKGRFTFTLDTSASTAYLELSSLRSEDTAVYYCARVRPWYLAVWGQGTLVTVSS VL: DIQMTQSPSSLSASVGDRVTITCRASQDISNYLNWYQQKPGKAVKLLIYYTSRLYSGVPSRFSGSGSGTDYTFTISSLQPEDIATYYCQQANTLPLTFGGGTKLEIK",
    "Reading": 0.191
  }
]

Next item in the queue.
Prompt: Dear colleague, I am looking for the recorded IL-8 secretion by OX40 overexpressing functional cell line, best-fit value LogEC50 of the following binder: AH02919 humanized anti-human OX40 monoclonal antibody (recombinant human IgG1/kappa) (antibody, V domains shown) VH: QVQLVQSGAEVKKPGASVKVSCKASGYTFTDYSMHWVKQAPGQGLEWMGWISTETGEPTYADDFKGRVTITRDTSASTAYLEISSLRSEDTAVYFCARVRPWYLAVWGQGTLVTVSS VL: DIQMTQSPSSLSASVGDRVTITCRASQDISNYLNWYQQKPGKAVKLLIYYTSRLYSGVPSRFSGSGSGTDYTLTISSLQPEDIATYYCQQANTLPLTFGGGTKLEIK
Response: 0.0123
